Reference source for all entries: PubChem BioAssay AID1159580

Experiment: chemical genetic growth profiling, strain panel (AID 1159580);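 note: tested at 20 µM; growth read once vehicle control cultures reached saturation at 30 °C; 1 = growth at the plate median or of vehicle wells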
Details: S. cerevisiae deletion strains, growth OD, locus YDR477W, strain SNF1, active compounds read low
Out of some 5,500 compounds screened, about 2,000 (36%) were called active. Another 18% or so got no clear call; they are omitted. This is one part of the list.
Checkbox rule: normalized growth lower than 0.9 = Satisfied; normalized growth not lower than 0.9 = Not satisfied.

O=C(Nc1ccc(OC(F)(F)F)cc1)OC1CN(C(c2ccccc2)c2ccccc2)C1 = Not satisfied

INPUT: Report whether reported normalized growth is lower than 0.9 (strictly) for `O=C(Nc1ccc(OC(F)(F)F)cc1)N1CCN(c2nc(-c3ccccc3)ns2)CC1`
OUTPUT: Not satisfied

INPUT: Say whether its normalized growth is strictly beneath 0.9. Entry: `Cc1c(-c2ccnn2C(=O)c2ccco2)cnn1-c1ccccc1`
OUTPUT: Satisfied

INPUT: normalized growth strictly < 0.9 for this compound? `FC(F)(F)c1cccc(-n2c(CSCc3cccc4ccccc34)n[nH]c2=S)c1`
OUTPUT: Not satisfied

INPUT: Below 0.9 on normalized growth? Entry `CC(=O)ON=C1c2cc([N+](=O)[O-])ccc2-c2ccc([N+](=O)[O-])cc21`
OUTPUT: Satisfied

INPUT: Dear reviewer, please state whether `CCc1ccn2cc(Nc3ccccc3Cl)nc2c1` has normalized growth strictly beneath 0.9.
OUTPUT: Not satisfied

====

Measured normalized growth values are reported for all entries that follow.
Assay: chemical genetic growth profiling, strain panel (AID 1159580)
Conditions: S. cerevisiae deletion strains, growth OD, locus YBR279W, strain paf1, active compounds read low
In all, about 5,500 compounds went through this assay and about 2,000 (36%) were called active. Roughly 18% stayed inconclusive and do not appear here. This is one part of the list.
Number, no unit, nothing else.

COc1c2ccoc2c(OC)c2oc(=O)ccc12 = 0.939
Oc1ccc(Cl)cc1 = 1.01

// switching to the query compound
INPUT: Recall and state the measured normalized growth for `COc1c(OC)c2occc2c2oc(=O)ccc12` .
OUTPUT: 0.973

====

Assay: chemical genetic growth profiling, strain panel (AID 1159580)
Conditions: S. cerevisiae deletion strains, growth OD, locus YKL160W, strain elf1, active compounds read low
About 2,000 (36%) of roughly 5,500 compounds were called active. About 18% were inconclusive and are not listed. This is one part of the list.
outcome.measure: normalized growth
# output: bare number, no unit

Below, each entry is followed by its recorded normalized growth result.
COc1ccc(CCN2CCC(Nc3nc4ccccc4n3Cc3ccc(F)cc3)CC2)cc1 = 0.961
O=C1OC2(c3ccc(O)cc3Oc3cc(O)ccc32)c2ccccc21 = 1.02

INPUT: Answer with the recorded normalized growth for the molecule listed here: C=C1CCC(C2CC(=O)OC2=O)C(=O)CCC2C1CC2(C)C (stereo unspecified)
OUTPUT: 1

INPUT: Output normalized growth of `CC(C)NC[C@H](O)COc1cccc2ccccc12`
OUTPUT: 0.992

====

Assay: chemical genetic growth profiling, strain panel (AID 1159580)
Details: S. cerevisiae deletion strains, growth OD, locus YDR101C, strain arx1
In all, about 5,500 compounds went through this assay and about 2,000 (36%) were called active. Not shown: some 18% with an inconclusive outcome. No stated cut-off is given here; in the data, active means normalized growth mostly below about 0.91 (no sharp cut-off); inconclusive means no clear call, values can overlap the other calls; inactive means mostly above about 0.92. The list shows a part of the results.
# output must be one of active, inactive

These recorded examples may help you get a feel for the data.
C=C1CCC(=O)C(C)CCC2C1CC2(C)C (stereo unspecified) = inactive
Nc1ccc(N=Nc2ccccc2)c(N)n1 = inactive
Cc1ccc(C)c(OCCCC(C)(C)C(=O)O)c1 = active
CC(C)C(=O)Nc1ccc([N+](=O)[O-])c(C(F)(F)F)c1 = inactive
CC1(C)O[C@@H]2CC3C4CCC5=CC(=O)CCC5(C)C4(F)C(O)CC3(C)[C@]2(C(=O)CCl)O1 (stereo partly specified) = inactive

Turning now to a further compound:
INPUT: For C=C1CCC(OC(C)=O)/C(C)=C/C[C@@H]2[C@@H]1CC2(C)C (stereo partly specified) , what call appears in the results of this test?
OUTPUT: inactive

====

normalized growth: recorded values
Assay: chemical genetic growth profiling, strain panel (AID 1159580);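 note: tested at 20 µM; growth read once vehicle control cultures reached saturation at 30 °C; 1 = growth at the plate median or of vehicle wells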
Conditions: S. cerevisiae deletion strains, growth OD, locus YBR279W, strain paf1, active compounds read low
In all, about 5,500 compounds went through this assay and about 2,000 (36%) were called active. Inconclusive results (about 18%) are left out. The list shows a part of the results.

Below, 4 compounds whose answers are already recorded.
C=CC(N)CCC(=O)O (stereo not given) = 0.986 (inactive)
COc1cc(OC)c2c(=O)c(-c3ccccc3)coc2c1 = 0.953 (inactive)
COc1cc(-c2coc3cc(OC)c(OC)c(OC)c3c2=O)cc(OC)c1OC = 1.01 (inactive)
N[C@@H](CC(=O)N1CCn2c(nnc2C(F)(F)F)C1)Cc1cc(F)c(F)cc1F = 0.988 (inactive)

Now consider a different compound.
INPUT: Supply reported normalized growth belonging to this compound: `O=C(Cn1ccnc1[N+](=O)[O-])NCCO`
OUTPUT: 1 (inactive)

====

Assay: chemical genetic growth profiling, strain panel (AID 1159580);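 note: tested at 20 µM; growth read once vehicle control cultures reached saturation at 30 °C; 1 = growth at the plate median or of vehicle wells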
Conditions: S. cerevisiae deletion strains, growth OD, locus YML124C, strain tub3
Screen size: about 5,500 compounds; about 2,000 (36%) were called active. About 18% were inconclusive and are not listed. Cut-off read from the data, not from the text of the source: active = normalized growth mostly below about 0.91 (no sharp cut-off); inconclusive = no clear call, values can overlap the other calls; inactive = mostly above about 0.92. The list shows a part of the results.
The reply should name one outcome from True = active, False = inactive

C=C1C(=O)O[C@@H]2C3O[C@]3(C)CC/C=C(\C)CC[C@@H]12 (some centres undefined) = True

INPUT: Which outcome was entered for the molecule `COc1cc([C@@H]2c3cc4c(c(O)c3C[C@H]3COC(=O)[C@@H]32)OCO4)cc(OC)c1OC` in this test?
OUTPUT: False

INPUT: What did the test return for CO[C@@]1(NC(=O)CSCC#N)C(=O)N2C(C(=O)O)=C(CSc3nnnn3C)CSC21 (some centres undefined) ?
OUTPUT: False

INPUT: I'd appreciate the recorded outcome for `Nc1ccc(N=Nc2ccccc2)c(N)n1` from this test.
OUTPUT: False

INPUT: Test call for this molecule, please: CC1(C)O[C@@H]2CC3C4CCC5=CC(=O)CCC5(C)C4(F)C(O)CC3(C)[C@]2(C(=O)CCl)O1 (some centres undefined)
OUTPUT: False

INPUT: Recorded test outcome, item Oc1ccc2c(c1)OCC1c3cc4c(cc3OC21)OCO4 (centres undefined)
OUTPUT: False

INPUT: I'd appreciate the recorded outcome for O=C1[C@H](CCC(O)c2ccc(F)cc2)[C@@H](c2ccc(O)cc2)N1c1ccc(F)cc1 (some centres undefined) from this test.
OUTPUT: False

INPUT: Just curious, what result did CC(=O)OC1CCC2(C)C(=CC=C3C2CCC2(C)C3CCC2C(C)/C=C/C(C)C(C)C)C1(C)C (centres undefined) get here?
OUTPUT: False

INPUT: Query: recorded result category for CC(C(=O)O)c1ccc(C(=O)c2cccs2)cc1 (centres undefined) in this test
OUTPUT: False

INPUT: Per the records of this test, what outcome belongs to `CC1(C)NC(=O)N(c2ccc([N+](=O)[O-])c(C(F)(F)F)c2)C1=O` ?
OUTPUT: False

INPUT: Any idea what this test logged for C#CCCCCCCCCCCCC(O)CC(O)CO (centres undefined) ?
OUTPUT: False

INPUT: Hello, I am checking results. What call was entered for C=C1C(=O)OC2CC1C(OC(C)=O)C/C(C)=C/CC/C(C)=C/CC[C@]2(C)O (some centres undefined) ?
OUTPUT: False

INPUT: What is the recorded call for this molecule in the test? `COC(=O)C1=CCCN(C)C1`
OUTPUT: False

INPUT: Check the results log: what was the call for `COc1c2ccoc2c(OC)c2oc(=O)ccc12` ?
OUTPUT: False

INPUT: For `NC[C@@H]1CC[C@@H](N)[C@@H](O[C@H]2[C@H](O)[C@@H](O[C@H]3O[C@H](CO)[C@@H](O)[C@H](N)[C@H]3O)[C@H](N)C[C@@H]2N)O1` , which call appears in the assay record?
OUTPUT: False

INPUT: Query: recorded result category for `COc1ccc2c(c1)CCC(c1ccccc1)=C2c1ccc(OCCN2CCCC2)cc1` in this test
OUTPUT: True

INPUT: Call for entry C#CCCCCCCCCCCCC(O)CC(O)COC(C)=O (centres undefined) :
OUTPUT: False

INPUT: Fill in: this test's call for CC1(C)OC(=O)C=CC2(C)C1CC(O)C1(C)C2CCC2(C)C(c3ccoc3)OC(=O)C3OC321 (centres undefined) is ___
OUTPUT: False

INPUT: Can you look up the reported call for `CC(C)C(=O)Nc1ccc([N+](=O)[O-])c(C(F)(F)F)c1` for me?
OUTPUT: False

====

Assay: chemical genetic growth profiling, strain panel (AID 1159580);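 note: tested at 20 µM; growth read once vehicle control cultures reached saturation at 30 °C; 1 = growth at the plate median or of vehicle wells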
Conditions: S. cerevisiae deletion strains, growth OD, locus YOR001W, strain rrp6, active compounds read low
Counter-ions that a name gives are not always drawn. Out of some 5,500 compounds screened, about 2,000 (36%) were called active. About 18% were inconclusive and are not listed. Some of the results follow. Where a SMILES comes first, the peptide text is derived from it. The star is where a group is joined. Tfa = O=C(C(F)(F)F)*
Measured normalized growth by item
Give the figure only, with no unit attached.

CC(C)C(NC(=O)C(Cc1ccc(O)cc1)NC(=O)C(NC(=O)C(F)(F)F)C(C)C)C(=O)O (stereo not drawn) (Tfa-Val-Tyr-Val-OH; configuration not given here) = 1
CC(C)C(C)/C=C/C(C)[C@H]1CCC2C3=CCC4CC(=O)CC[C@]4(C)C3CC[C@@]21C (some centres undefined) = 1
C=C1C(=O)O[C@@H]2C[C@@]3(C)CCC[C@H](C)C3=C[C@H]12 = 0.807

Kindly consider the entry below.
INPUT: Assign normalized growth to the following record: CC1OC1P(=O)(O)O (centres undefined)
OUTPUT: 0.971
